Test: Dissociation constant, pKa of the compound
Type: physicochemical
READOUT_KIND: pKa
Note: the reply should be a number with no unit written.

Field pKa (entry CC(C)N(c1ccc(Oc2ccccc2C(F)(F)F)cc1C(=O)O)C(=O)[C@H]1CC[C@H](C)CC1 ) reads 5.5

---

Assay: Lipophilicity, log D of the compound at pH 7.4
Assay type: physicochemical
Conditions: buffer
READOUT_KIND: logD
Note: the reply should be a number with no unit written.

Field logD (entry CC(C)N(c1ccc(Oc2ccccc2C(F)(F)F)cc1C(=O)O)C(=O)[C@H]1CC[C@H](C)CC1 ) reads 2.9

---

Listed here are compounds together with their documented pEC50.
Tested on: Hepatitis C virus
Test: Antiviral activity against HCV genotype 1b by cell-based luciferase reporter gene assay
Format: functional, organism-based, Hepacivirus hominis
Scale: negative log10 of molar concentration, which is what pEC50 denotes.

As a guide, the following entries are already answered.
* CC(C)N(c1ccc(Oc2ccccc2C2CC2)cc1C(=O)O)C(=O)[C@H]1CC[C@H](C)CC1 | 5.37
* CC(C)N(c1ccc(Oc2ccncc2C(F)(F)F)cc1C(=O)O)C(=O)[C@H]1CC[C@H](C)CC1 | 6.77

Now consider a different compound.
Field pEC50 (entry CC(C)N(c1ccc(Oc2ccccc2C(C)(F)F)cc1C(=O)O)C(=O)[C@H]1CC[C@H](C)CC1 ) reads 6.21

---

System: Hepatitis C virus
Experiment: Antiviral activity against HCV genotype 1b by cell-based luciferase reporter gene assay
Assay type: functional, organism-based, Hepacivirus hominis
READOUT_KIND: pEC50
Scale: negative log10 of molar concentration, which is what pEC50 denotes.

- CC(C)N(c1ccc(Oc2cccc(C(F)(F)F)c2)cc1C(=O)O)C(=O)[C@H]1CC[C@H](C)CC1: 5.20
- Cc1ccc(S(=O)(=O)Nc2ccc(Oc3ccccc3OC(F)(F)F)cc2C(=O)O)cc1: 5.15
- CC(C)N(c1cc(Oc2ccccc2)ccc1C(=O)O)C(=O)[C@H]1CC[C@H](C(F)(F)F)CC1: 4.80
- Cc1ccc(S(=O)(=O)Nc2ccc(Oc3ccccc3C(F)(F)F)cc2C(=O)O)cc1: 5.14
- CC(C)N(c1ccc(Oc2ccccc2Br)cc1C(=O)O)C(=O)[C@H]1CC[C@H](C)CC1: 5.31

Field pEC50 (entry CC(C)N(c1cc(Oc2ccccc2)ccc1C(=O)O)C(=O)[C@H]1CC[C@H](C)CC1 ) reads 4.96

Field pEC50 (entry CC(C)N(c1ccc(Oc2ccccc2OC(F)(F)F)cc1C(=O)O)C(=O)[C@H]1CC[C@H](C)CC1 ) reads 5.55

Field pEC50 (entry CC(C)N(c1ccc(Oc2ccccc2)cc1C(=O)O)C(=O)[C@H]1CC[C@H](C)CC1 ) reads 5.30

---

System: Hepatitis C virus
Experiment: Antiviral activity against HCV genotype 1b by cell-based luciferase reporter gene assay
Format: functional, organism-based, Hepacivirus hominis
READOUT_KIND: pEC50
Scale: negative log10 of molar concentration, which is what pEC50 denotes.

- CC(C)N(c1ccc(OC2CCCC2)cc1C(=O)O)C(=O)[C@H]1CC[C@H](C)CC1: 6.00
- CC[C@H]1CC[C@H](C(=O)N(c2ccc(Oc3ccccc3)cc2C(=O)O)C(C)C)CC1: 4.60

Field pEC50 (entry Cc1ccc(S(=O)(=O)Nc2ccc(OC3CCCC3)cc2C(=O)O)cc1 ) reads 5.07
